biological target: Human Polymorphonuclear Leukocyte Elastase (Homo sapiens); construct: Crude extract of human polymorphonuclear leukocytes (PMN) containing elastase activity; from tissue; host or cells: human polymorphonuclear leukocytes (crude extract); assay: Enzyme assay for inhibition of human polymorphonuclear leukocyte elastase via hydrolysis of Boc-AAPAN or Boc-AAPVN; format: biochemical; conditions: pH 7.5, second order rate constant for inactivation of the enzyme, expressed to the nearest thousand, read-out: Kobs/[I]
MEASUREMENT LABEL: kinact/KI (M⁻¹ s⁻¹)

Example cases with answers are listed next.
{"MOLECULE": "CCC[C@@H](NC(=O)N1C(=O)C(CC)(CC)[C@@H]1Oc1ccc(C(=O)NS(=O)(=O)CCN(C)C)cc1)c1ccc(C)cc1 [Compound 88]", "REPORTED RESULT": 788000}
{"MOLECULE": "CCC[C@@H](NC(=O)N1C(=O)C(CC)(CC)[C@@H]1Oc1ccc(C(=O)NC2CC(C)(C)NC(C)(C)C2)cc1)c1ccc(C)cc1 [Compound 174]", "REPORTED RESULT": 869000}
{"MOLECULE": "CCC[C@@H](NC(=O)N1C(=O)C(CC)(CC)[C@@H]1Oc1ccc(C(=O)OCC(=O)N(C)CC(N)=O)cc1)c1ccc(C)cc1 [Compound 4]", "REPORTED RESULT": "4.29e+06"}

A. CCC[C@@H](NC(=O)N1C(=O)C(CC)(CC)[C@@H]1Oc1ccc(C(=O)N2CCCN(Cc3ccccc3)CC2)cc1)c1ccc(C)cc1 [Compound 155]
B. CCC[C@@H](NC(=O)N1C(=O)C(CC)(CC)[C@@H]1Oc1ccc(C(=O)N2CCCCC2CO)cc1)c1ccc(C)cc1 (stereo partly drawn) [Compound 228]
Query :: Param pair: A , B . Output: the one whose kinact/KI is numerically greater. State your choice using its label.
Result :: A
(A: 1.98e+06 M⁻¹ s⁻¹, B: 50000 M⁻¹ s⁻¹)

---

Target: Human Polymorphonuclear Leukocyte Elastase (Homo sapiens, UniProt P08246)
Construct: Crude extract of human polymorphonuclear leukocytes (PMN) containing elastase activity; from tissue; host or cells: human polymorphonuclear leukocytes (crude extract)
Sequence (P08246 30-267): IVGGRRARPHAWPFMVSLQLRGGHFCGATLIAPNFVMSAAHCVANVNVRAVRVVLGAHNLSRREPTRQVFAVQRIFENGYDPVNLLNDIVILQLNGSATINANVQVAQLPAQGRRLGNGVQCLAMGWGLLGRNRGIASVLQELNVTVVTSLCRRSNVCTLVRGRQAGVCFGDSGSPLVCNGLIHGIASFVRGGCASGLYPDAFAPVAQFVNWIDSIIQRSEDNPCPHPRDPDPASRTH
Assay: Enzyme assay for inhibition of human polymorphonuclear leukocyte elastase via hydrolysis of Boc-AAPAN or Boc-AAPVN
Assay type: biochemical
Details: pH 7.5, second order rate constant for inactivation of the enzyme, expressed to the nearest thousand, read-out: Kobs/[I]
Protocol: Enzyme Assays for the Inhibition of Human Polymorphonuclear Leukocyte Elastase Via Hydrolysis of N-t-Boc-alanyl-alanyl-prolylalanine-p-nitroanilide (Boc-AAPAN) or N-t-Boc-alanyl-prolylvaline-p-nitro-anilide (Boc-AAPVN) Reagent: […] To 1.0 ml of 0.2 mM Boc-AAPAN in a cuvette, 0.01-0.1 ml of DMSO with or without inhibitor was added. […] 0.05 Milliliters of PMN extract was then added and the ΔOD/min at 410 mµ was measured and recorded. […]
MEASUREMENT LABEL: kinact/KI (M⁻¹ s⁻¹)

Example cases with answers are listed next.
{"SMILES REPR": "CCC[C@@H](NC(=O)N1C(=O)C(CC)(CC)[C@@H]1Oc1ccc(C(=O)NCCN(CC)CC)cc1)c1ccc(C)cc1", "SYSTEM": "Human Polymorphonuclear Leukocyte Elastase (Homo sapiens, UniProt P08246)", "UNIT ANNOTATION": "M⁻¹ s⁻¹", "kinact/KI": "1.19e+06"}
{"SMILES REPR": "CCC[C@@H](NC(=O)N1C(=O)C(CC)(CC)[C@@H]1Oc1ccc(C(=O)N2CCC[C@H]2C(N)=O)cc1)c1ccc(C)cc1", "SYSTEM": "Human Polymorphonuclear Leukocyte Elastase (Homo sapiens, UniProt P08246)", "UNIT ANNOTATION": "M⁻¹ s⁻¹", "kinact/KI": 931000}
{"SMILES REPR": "CCC[C@@H](NC(=O)N1C(=O)C(CC)(CC)[C@@H]1Oc1ccc(C(=O)N2CCN(c3ncccn3)CC2)cc1)c1ccc(C)cc1", "SYSTEM": "Human Polymorphonuclear Leukocyte Elastase (Homo sapiens, UniProt P08246)", "UNIT ANNOTATION": "M⁻¹ s⁻¹", "kinact/KI": "2.14e+06"}
{"SMILES REPR": "CCC[C@@H](NC(=O)N1C(=O)C(CC)(CC)[C@@H]1Oc1ccc(C(=O)N(C)CC(=O)O)cc1)c1ccc(C)cc1", "SYSTEM": "Human Polymorphonuclear Leukocyte Elastase (Homo sapiens, UniProt P08246)", "UNIT ANNOTATION": "M⁻¹ s⁻¹", "kinact/KI": 984000}
{"SMILES REPR": "CCC[C@@H](NC(=O)N1C(=O)C(CC)(CC)[C@@H]1Oc1ccc(C(=O)N(C)CCN(C)C)cc1)c1ccc(C)cc1", "SYSTEM": "Human Polymorphonuclear Leukocyte Elastase (Homo sapiens, UniProt P08246)", "UNIT ANNOTATION": "M⁻¹ s⁻¹", "kinact/KI": "1.92e+06"}

1. CCC[C@@H](NC(=O)N1C(=O)C(CC)(CC)[C@@H]1Oc1ccc(C(=O)N(CC)CCN2CCCCC2)cc1)c1ccc(C)cc1
2. CCC[C@@H](NC(=O)N1C(=O)C(CC)(CC)[C@@H]1Oc1ccc(CC(=O)N2CCOCC2)cc1)c1ccc(C(=O)N(C)CCN(C)C)cc1
Query :: Smaller kinact/KI value, 1 vs 2 ? State your choice using its label.
Result :: 2
(2: 393000 M⁻¹ s⁻¹, 1: 1.24e+06 M⁻¹ s⁻¹)

a. CCC[C@@H](NC(=O)N1C(=O)C(CC)(CC)[C@@H]1Oc1ccc(C(=O)OCC(=O)N2CCC[C@H]2C(=O)OCc2ccccc2)cc1)c1ccc(C)cc1
b. CCC[C@@H](NC(=O)N1C(=O)C(CC)(CC)[C@@H]1Oc1ccc(CC(=O)N(C)CC(=O)O)cc1)c1ccc(C)cc1
c. CCC[C@@H](NC(=O)N1C(=O)C(CC)(CC)[C@@H]1Oc1ccc(C(=O)N2CCN(CCC)CC2)cc1)c1ccc(C)cc1
d. CCC[C@@H](NC(=O)N1C(=O)C(CC)(CC)[C@@H]1Oc1ccc(C(=O)O[C@@H](C)C(=O)N(CC)CC)cc1)c1ccc(C)cc1
Query :: Hello, I need these entries ordered by kinact/KI, highest reading first. Thanks! Returns: the labels listed in the requested order.
Result :: a, d, c, b
(a: 1.25e+07 M⁻¹ s⁻¹, d: 2.82e+06 M⁻¹ s⁻¹, c: 1.77e+06 M⁻¹ s⁻¹, b: 989000 M⁻¹ s⁻¹)

---

Target: Human Polymorphonuclear Leukocyte Elastase (Homo sapiens, UniProt P08246)
Construct: Crude extract of human polymorphonuclear leukocytes (PMN) containing elastase activity; from tissue; host or cells: human polymorphonuclear leukocytes (crude extract)
Test: Enzyme assay for inhibition of human polymorphonuclear leukocyte elastase via hydrolysis of Boc-AAPAN or Boc-AAPVN
Type: biochemical
Settings: pH 7.5, second order rate constant for inactivation of the enzyme, expressed to the nearest thousand, read-out: Kobs/[I]
Protocol: Enzyme Assays for the Inhibition of Human Polymorphonuclear Leukocyte Elastase Via Hydrolysis of N-t-Boc-alanyl-alanyl-prolylalanine-p-nitroanilide (Boc-AAPAN) or N-t-Boc-alanyl-prolylvaline-p-nitro-anilide (Boc-AAPVN) Reagent: […] To 1.0 ml of 0.2 mM Boc-AAPAN in a cuvette, 0.01-0.1 ml of DMSO with or without inhibitor was added. […] 0.05 Milliliters of PMN extract was then added and the ΔOD/min at 410 mµ was measured and recorded. […]
MEASUREMENT LABEL: kinact/KI (M⁻¹ s⁻¹)

Example cases with answers are listed next.
{"COMPOUND": "C=CCN(CCN(C)C(=O)c1ccc(O[C@@H]2N(C(=O)N[C@H](CCC)c3ccc(C)cc3)C(=O)C2(CC)CC)cc1)C(C)(C)C=C", "UNIT ANNOTATION": "M⁻¹ s⁻¹", "kinact/KI": 925000}
{"COMPOUND": "CCC[C@@H](NC(=O)N1C(=O)C(CC)(CC)[C@@H]1Oc1ccc(C(=O)NCCN2CCC[C@H]2CO)cc1)c1ccc(C)cc1", "UNIT ANNOTATION": "M⁻¹ s⁻¹", "kinact/KI": "1.51e+06"}

A. CCC[C@@H](NC(=O)N1C(=O)C(CC)(CC)[C@@H]1Oc1ccc(CC(=O)NC(C)C(=O)O)cc1)c1ccc(C)cc1 (stereo partly drawn)
B. CCC[C@@H](NC(=O)N1C(=O)C(CC)(CC)[C@@H]1Oc1ccc(C(=O)N2CCCNCC2)cc1)c1ccc(C)cc1
C. CCC[C@@H](NC(=O)N1C(=O)C(CC)(CC)[C@@H]1Oc1ccc(C(=O)OCCN(C)Cc2ccccc2)cc1)c1ccc(C)cc1
D. CCC[C@@H](NC(=O)N1C(=O)C(CC)(CC)[C@@H]1Oc1ccc(C(=O)N2CCN(Cc3ccccc3)CC2)cc1)c1ccc(C)cc1
Query :: Hello, I need these entries ordered by kinact/KI, highest reading first. Thanks! Returns: the labels listed in the requested order.
Result :: D, B, C, A
